Each record here notes measured Neutralization IC50 (RSV subtype A).
- MEASURED_TARGET: RSV F on RSV-A2 virus (Respiratory syncytial virus, RSV-A2, UniProt P03420 26-574)
- ASSAY_REMARKS: cell-based or functional assay

# BINDER, Neutralization IC50 (RSV subtype A)
data = [
    ("ADI-41583 (antibody, V domains shown) VH: QVQLVQSGAEVKKPGSSVKVSCKASGGTFSRHTITWVRQAPGQGLEWMGRIAPIVGFANYAQKFQGRVTITADKSTSTAYMELRSLRSEDTAVYYCARRSEDYYGLDVWGQGTTVTVSS VL: DIVMTQSPSSLSASVGDRVTITCQASQDISNYLNWYQQKPGKAPKLLIYEASNLETGVPSRFSGSGSGTDFTFTISSLQPEDIATYYCQQYDNLFGGGTKLEIK", "> 25 µg/mL"),
    ("ADI-41611 (antibody, V domains shown, also called Ab 885; Antibody Number 885) VH: EVQLVESGGGLVKPGGSLRLSCAASGFTFSDYSMNWVRQAPGKGLEWVSSTSSGSTYIYYADSVKGRFTISRDNGKNSLYLQMNSLRAEDTAVYYCARAFRLGYDALDIWGQGTMVTVSS VL: DIRMTQSPSSLSASVGDRVTIICRASQSISNYLNWYQQKPGKAPKLLIYVASNLQSGVPSRFSGSGSGTDFTLTISSLQPEDFATYYCQQTYSPPPTFGGGTKLEIK", "> 25 µg/mL"),
    ("ADI-41803 (antibody, V domains shown, also called Ab 912; Antibody Number 912) VH: RCTLQQWGAGRVKPSETLSLTCAVYRGPFSGYYWSWIRQPPGKGLEWIGEINLGETNPGGSTHYNPSLRSRLSMSIDTSKKQFSLRVNSVTAADTAVYYCTRGPVSRIYDTSGSYSLNYYGMDVWGQGTTVTVSS VL: DIRMTQSPSSLSASVGDRVTITCRASQGIRNDLGWYQQKPGRAPERLIYPASSLQGGVPSRFIASGSGTEFTLTISNLQPEDFATYYCLQHNSYPRTFGQGTKVEIK", "> 25 µg/mL"),
    ("ADI-41810 (antibody, V domains shown) VH: QVQLVQSGGGVVQPGRSLRLSCAASGFNFHNYAMHWVRQAPGKGLEWVAVISYDGGNKHYADSVKGRFTISRDNSKNTLYLQMNSLRPDDTAVYYCARGHSDWRGDYFDFWGQGTLVTVSS VL: DIQLTQSPATLSVSPGERAILSCRASQNVGTNLAWYQQKPGQAPRLLIYDASTRATGIPARFSGSGAGTDFTLTISGLQSEDFAVYYCQQYINWPPYTFGQGTKLEIK", "> 25 µg/mL"),
    ("ADI-41579 (antibody, V domains shown) VH: QVQLVESGAEARKPGSSVKVSCKLSGGTFSTDPISWVRQAPGQGLEWMGRIIPLLGIANYAQKFQGRVTIIADKSTSTVYMELRNLRFEDTAVYFCARRGDGYYGMDVWGQGTTVTVSS VL: QSVLTQPASVSGSPGQSITISCTGTSNDIGGYDYVSWYQQHPGKAPKLMIYDVHNRPSGVSNRFSGSKSGNTASLTISGLQAEDEADYYCSSFSDSGNLYVFGTGTKLTVL", "0.209 µg/mL"),
    ("ADI-41772 (antibody, V domains shown) VH: EVQLLESGGGLVEPGTSLRLSCEASGFTFSDYYMSWIRQAPGKGPEWVADISSRGVVTYYADSVKGRFTISRDNAKNSLYLQLNSLGAEDTAVYYCARLREVTYIMPTIDYFDYWGQGTLVTVSS VL: SYELTQPPSVSVSPGQTARITCSGDAFVKKYAYWYHQKSGQAPVVVIYEDTKRPSGIPERFSGSSSGTTATLTISGAQVEDEGDYYCYSRDFSGDHGVFGGGTKLTVL", "0.04 µg/mL"),
    ("ADI-41594 (antibody, V domains shown) VH: EVQLVESGGGLVKPGGSLRLSCAASGFSFSSYYMNWVRQAPGKGLEWVSSISPSSSYTNYADSVKGRFTISRDNAKDSLYLQMNSLRAEDTAVYYCARDGLLGITIFGVVQDYWGQGTLVTVSS VL: QSVVTQPPSVSGAPGQRVTISCTGSSSNIGAGYDVHWYQQLPGTAPKLLIYGNTNRPSGVPDRFSASKSGTSASLAITGLQAEDEADYYCQSYDSSLSVVFGGGTKLTVL", "0.0406 µg/mL"),
    ("ADI-41662 (antibody, V domains shown) VH: QVQLVQSGAEVKKAGESLKISCKGPRHSFTSYWIGWVRQMPGKGLEWMASIYPGDSDSRYSPSFEGQVTISADKSIDTAFLQWSSLKASDTAMYFCARYVGAVPGGNWYFDLWGRGTLVTVSS VL: SYELIQLPSVSVSPGQTARITCSGDALPKKYAYWYQQKSGQAPVLVIYDDNKRPSGIPARFSGSSSGTMATLTISGAQVEDEGDYYCYSTDSTGDHRGVFGGGTKLTVL", "> 25 µg/mL"),
    ("ADI-41580 (antibody, V domains shown, also called Ab 854; Antibody Number 854) VH: QVQLQQWGAGLLKPSETLSLTCAVYGGSFSGYYWSWIRQPPGKGLEWIGEMNHSGGSNYNPSFKSRVTISVDTSKKYFSLNLSSVTAADTAIYYCARTPFYYESTGYYYYYYGMDVWGQGTTVTVSS VL: DIVMTQTPDSLAVSLGERATINCKSSQSVSHSSNNKNYLSWYQQKPGQPPKLLIYWASIRESEAPDRFTGSGSGTDFTLTISSLQAEDVAVYYCQQYYTAPITFGQGTRLEIK", "1.11 µg/mL"),
    ("ADI-41568 (antibody, V domains shown) VH: QVQLQQWGARLLKPSETLSLTCAVYGGSFSGYYWSWIRQSPGKGLEWIGEINHSGSTNYNPSLKSRVTISRDTSKKQFSLKVSSVTAADTAVYYCARDPPIRCNGDSCKSDQYRYGMDVWGQGTTVTVSS VL: QPGLTQPPSVSVSPGQTARITCSGDALPKQYAYWYQQKPGQAPVLVIHKDNERPSGIPERFSGSSSGTTVTLTISGVQAEDEADYYCQSADTSGSYRLFGGGTKLTVL", "> 25 µg/mL"),
]
